tested on: HT29 colon; assay: NCI-60 one-dose screen, 48 h (100 = growth as untreated, 0 = no growth, -100 = all killed); details: 10 µM unless noted
About 83,000 compounds went through this panel and 20% of them were active in at least one assay; those are over-represented in the sample as a whole.
Recorded measurements of growth, one per entry
endpoint: growth (%)

>>> df
                                    compound  unit_label  quantitative_result
 0  CC1=CC(=O)C=CC1(C)C(Cl)(Cl)Cl (stereo not given)           %                 83.1
 1           Cc1cc(N/N=C/c2ccccn2)nc2ccccc12           %                 20.3
 2  CCCCCC/C=C1\CCC(CN2CCCC2)C1=O (stereo not given)           %                  120
 3  O=C(c1ccccc1)C(Br)[N+](=O)[O-] (stereo not given)           %                 90.5
 4        CCOC(=O)NC(/C=C/c1ccccc1)NC(=O)OCC           %                  101
 5          O=C1C=CC(=O)N1c1cc(Cl)c(Cl)cc1Cl           %                  101
 6            CC(C)c1ccc(Nc2n[nH]c(=S)s2)cc1           %                 76.1
 7  O=[N+]([O-])c1ccc(N2CCN(Cc3ccccc3)CC2)c2c1no[n+]2[O-]           %                -70.4
 8                 N#CC(=C1SCS1)[N+](=O)[O-]           %                 1.29
 9                    O=C1C=CC(=O)N1c1ccccc1           %                  103
10  CCCCCCCCCCCC(=O)OC(C)C(=O)NCCCC (stereo not given)           %                  101
11  O=C(C[P+](c1ccccc1)(c1ccccc1)c1ccccc1)c1ccccc1           %                 87.4
12  Cc1nn(CCO)c(C)c1N=[N+]([O-])c1c(C)nn(CCO)c1C           %                  -14
13               Oc1ccc(Br)cc1Sc1cc(Br)ccc1O           %                  116
14                  CCCCCCCCCCCCNCCCc1ccccc1           %                 7.89

* * *

Quick reference for growth among some compounds
system: HT29 colon; experiment: NCI-60 one-dose screen, 48 h (100 = growth as untreated, 0 = no growth, -100 = all killed); conditions: 10 µM unless noted
Compounds without any hit were thinned out: in the full panel of roughly 83,000, 20% have a hit. Activity calls are given as the source filed them. Rule for the calls: active = growth percent below 10; inactive = the rest.
endpoint: growth

In [3]: df
Out[3]:
                              record_smiles  assay_system            result
0  Cc1ccc(Nc2ccc(O)c3c2C(=O)c2c(O)ccc(Nc4ccc(C)cc4)c2C3=O)cc1    HT29 colon   106% (inactive)
1  CN(C)c1ccc(C(=C2C=CC(=[N+](C)C)C=C2)c2ccc(N(C)C)cc2)cc1    HT29 colon   -19.7% (active)
2  CN(C)CC(C)(CN(C)C)C(=O)/C=C/c1c(Cl)cccc1Cl    HT29 colon  12.2% (inactive)
3  Cc1nnc(N/N=C/c2ccc([N+](=O)[O-])o2)[nH]c1=O    HT29 colon  27.5% (inactive)
4       CC/C(=C(/CC)c1ccc(O)cc1)c1ccc(O)cc1    HT29 colon  71.5% (inactive)
